assay_method_text: GLP1 release stimulators, primary, NCI-H716, NPC library (AID 1117341); further: reference of the scale not given here
conditions_used: NCI-H716 cells, at 10 µM
Calls of active or inactive are those of the source.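 How the source made its calls: active means compound raises GLP1 secretion from the human gut endocrine cells, with no numeric limit stated; inactive means the rest.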
In this exercise, the only acceptable responses are active, inactive

What is the recorded call for this compound in the test? Cn1c(=O)c2c(ncn2CCO)n(C)c1=O inactive

Then this compound: Oc1cccc2[nH]ccc12 inactive

Let us now turn to O=C(O)/C=C(\CC(=O)O)C(=O)O inactive

Now consider Cc1cc2c(C(C)C)c(O)c(O)c(C=O)c2c(O)c1-c1c(C)cc2c(C(C)C)c(O)c(O)c(C=O)c2c1O . active

What about this compound? Cc1onc(-c2ccccc2Cl)c1C(=O)N[C@@H]1C(=O)N2[C@@H]1SC(C)(C)[C@@H]2C(=O)O inactive

Next entry: Cn1c(NCCN(CCO)CCCc2ccc([N+](=O)[O-])cc2)cc(=O)n(C)c1=O inactive

Try NCCS next. inactive

Try the compound C[C@]12CCC(=O)C=C1C=C[C@@H]1[C@@H]2CC[C@@]2(C)[C@H]1CC[C@@]21CCC(=O)O1 inactive

// next record CN1CCN(C2=Nc3ccccc3Oc3ccc(Cl)cc32)CC1 inactive

Same read-out for CN(C)CCOC(=O)C(c1ccccc1)C1(O)CCCC1 (stereo not given) ? inactive

Also O=C(O)CCNC(=O)c1ccccc1 ? inactive

O=C1CC2(CCCC2)CC(=O)N1CCNCC1COc2ccccc2O1 (stereo not given) , same question. inactive

# repeat for Oc1cccc(O)c1 inactive

Entry CC(C)NCC(O)COc1ccc(COCCOC(C)C)cc1 (stereo not given) please inactive

Can you check Cc1cc(C)nc(NS(=O)(=O)c2ccc(N)cc2)n1 next? inactive

Again, but for COc1ccc(CCN2CCC(Nc3nc4ccccc4n3Cc3ccc(F)cc3)CC2)cc1 inactive

Then this compound: Cc1cc(-c2ccccc2)nnc1NCCN1CCOCC1 inactive

Query CC1(C)O[C@@H]2C[C@H]3[C@@H]4C[C@H](F)C5=CC(=O)C=C[C@]5(C)[C@@]4(F)[C@@H](O)C[C@]3(C)[C@]2(C(=O)CO)O1 next inactive

Again, but for COc1ccc(C2CNC(=O)C2)cc1OC1CCCC1 (stereo not given) inactive

Also, C=Cc1c(C)c2cc3[nH]c(cc4nc(cc5nc(cc1[nH]2)C(C)=C5CCC(=O)O)C(CCC(=O)O)=C4C)c(C)c3C=C please. active

Next compound up: COc1cc(C(=O)NC2CCCNC2)cc(OC)c1OC (stereo not given) inactive

Now give it for CCCCOc1cc(C(=O)NCCN(CC)CC)c2ccccc2n1 too. inactive

Repeat with Nc1[nH]c(=O)ncc1F inactive

Moving on to the next compound: Cc1ccnc(NS(=O)(=O)c2ccc(N)cc2)n1 inactive

Now the same for CCCCCCCC/C=C\CCCCCCCC(=O)NCc1ccc(O)c(OC)c1 inactive

Moving on to the next compound: C[C@@H]1CN(c2c(F)c(F)c3c(=O)c(C(=O)O)cn(C4CC4)c3c2F)C[C@H](C)N1 inactive

Could you do the same for CN(C)CCCSc1ccccc1NC(=O)/C=C/c1ccccc1 , please? inactive

And for CC(C)(O)c1ccccc1CC[C@@H](SCC1(CC(=O)O)CC1)c1cccc(/C=C/c2ccc3ccc(Cl)cc3n2)c1 ? active

Try this compound next: CCCCOC(=O)c1ccc(N)cc1 inactive

Follow-up entry: COc1ccc(CCN(C)CCCC(C#N)(c2ccc(OC)c(OC)c2)C(C)C)cc1OC (stereo not given) inactive

Same question for O=C1c2c(O)cccc2Cc2cccc(O)c21 please. inactive

Subsequent entry: CC(C)(C)NC(=O)[C@@H]1CN(Cc2cccnc2)CCN1C[C@@H](O)C[C@@H](Cc1ccccc1)C(=O)N[C@H]1c2ccccc2C[C@H]1O inactive

Follow-up entry: Cc1cc(N)c2ccccc2[n+]1CCCCCCCCCC[n+]1c(C)cc(N)c2ccccc21 inactive

Another compound: CCN(CC)CCOC(=O)C(Cc1cccc2ccccc12)CC1CCCO1 (stereo not given) active

Same question for Cn1c(=O)c2c(ncn2C)n(C)c1=O please. inactive

Follow-up item: CN(Cc1cc(Br)cc(Br)c1N)C1CCCCC1 inactive

CO[C@@]1(NC(=O)C(C(=O)O)c2ccc(O)cc2)C(=O)N2C(C(=O)O)=C(CSc3nnnn3C)CO[C@@H]21 (stereo not given in full) , same question. inactive

Same question, O=C(NCCO[N+](=O)[O-])c1cccnc1 this time inactive

Now consider CCn1cc(C(=O)O)c(=O)c2cnc(N3CCNCC3)nc21 and answer again. inactive

Request: C[C@H]1COc2c(C3(N)CC3)c(F)cc3c(=O)c(C(=O)O)cn1c23 inactive

Try CCCCCCc1ccc(O)cc1O next. inactive

Here is the next compound: O=C1OCCN1/N=C/c1ccc([N+](=O)[O-])o1 inactive

Further, for CCOC(=O)OC(C)OC(=O)[C@@H]1N2C(=O)[C@@H](NC(=O)[C@H](N)c3ccccc3)[C@H]2SC1(C)C (stereo not given in full) ? inactive

Entry to check: Cc1ccc(C(=O)c2ccc(CC(=O)O)n2C)cc1 inactive

Please answer likewise for CCCCCCOc1ccccc1C(N)=O inactive

Source listed as PubChem BioAssay.
